Hey, just so you know, these numbers are from ChEMBL document CHEMBL1961873.

target: Serine/threonine-protein kinase BRSK2 (Homo sapiens) (UniProt Q8IWQ3); conditions: at 0.1 µM;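 note: values are mean inhibition of BRSK2 from the GSK PKIS screening dataset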
Sequence (Q8IWQ3 whole entry): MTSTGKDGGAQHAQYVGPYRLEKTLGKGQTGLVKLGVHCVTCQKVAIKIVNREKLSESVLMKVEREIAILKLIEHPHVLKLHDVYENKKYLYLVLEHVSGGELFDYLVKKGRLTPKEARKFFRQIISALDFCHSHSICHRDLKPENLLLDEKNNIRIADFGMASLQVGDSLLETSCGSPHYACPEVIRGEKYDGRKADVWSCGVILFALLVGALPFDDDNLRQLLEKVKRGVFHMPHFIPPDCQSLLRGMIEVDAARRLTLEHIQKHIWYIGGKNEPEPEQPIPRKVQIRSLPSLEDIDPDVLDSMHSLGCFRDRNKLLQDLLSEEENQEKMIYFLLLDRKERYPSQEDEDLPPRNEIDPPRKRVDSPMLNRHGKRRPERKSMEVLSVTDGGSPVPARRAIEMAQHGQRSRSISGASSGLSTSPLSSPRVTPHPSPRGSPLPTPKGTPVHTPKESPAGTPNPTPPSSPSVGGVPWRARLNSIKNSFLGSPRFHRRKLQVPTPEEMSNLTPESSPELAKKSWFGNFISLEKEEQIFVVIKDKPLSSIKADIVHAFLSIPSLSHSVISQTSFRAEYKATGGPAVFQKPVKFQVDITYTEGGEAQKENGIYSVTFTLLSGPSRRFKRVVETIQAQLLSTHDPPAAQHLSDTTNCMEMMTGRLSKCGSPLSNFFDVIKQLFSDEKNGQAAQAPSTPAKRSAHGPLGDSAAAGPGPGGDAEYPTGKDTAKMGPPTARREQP
Observed Property: inhibition (%)
Answers are plain numbers, in %.

Solved cases below.
Cc1ccc(NC(=O)c2ccnc(N3CCCC3)c2)cc1-c1ccc(C(=O)NCC2CC2)cc1 = 2.81
COc1ccc(-c2nn3ncccc3c2-c2ccnc(Nc3ccc(Cl)c(C(F)(F)F)c3)n2)cc1 = 2.7

Batch request: inhibition per item, same order as input.
1. COc1ccc(-c2ccncc2)cc1C(N)=O
2. CCn1c(-c2nonc2N)nc2cncc(C(=O)N3CC[C@H](N)C3)c21
3. CN1CCC(C(=O)Nc2n[nH]c3nnc(-c4ccccc4)cc23)CC1
4. O=C1NC(=O)C(c2ccccc2Cl)=C1Nc1cccc(O)c1
5. Nc1ncnc2occ(-c3ccc(NC(=O)Nc4cccc(C(F)(F)F)c4)cc3)c12
6. Cc1nn(C)c2cc(N(C)c3ccnc(Nc4cccc(S(N)(=O)=O)c4)n3)ccc12
7. O=C(Nc1n[nH]c2nc(-c3ccco3)c(Br)cc12)C1CC1

1. 4.68
2. 0.94
3. 2.62
4. 1.63
5. 5.5
6. 0.72
7. 3.32

* * *

target: Tyrosine-protein kinase Lck (Homo sapiens) (UniProt P06239); details: at 1 µM;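 note: reported Lck percent inhibition is a mean value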
Sequence (P06239 2-509 limits assumed): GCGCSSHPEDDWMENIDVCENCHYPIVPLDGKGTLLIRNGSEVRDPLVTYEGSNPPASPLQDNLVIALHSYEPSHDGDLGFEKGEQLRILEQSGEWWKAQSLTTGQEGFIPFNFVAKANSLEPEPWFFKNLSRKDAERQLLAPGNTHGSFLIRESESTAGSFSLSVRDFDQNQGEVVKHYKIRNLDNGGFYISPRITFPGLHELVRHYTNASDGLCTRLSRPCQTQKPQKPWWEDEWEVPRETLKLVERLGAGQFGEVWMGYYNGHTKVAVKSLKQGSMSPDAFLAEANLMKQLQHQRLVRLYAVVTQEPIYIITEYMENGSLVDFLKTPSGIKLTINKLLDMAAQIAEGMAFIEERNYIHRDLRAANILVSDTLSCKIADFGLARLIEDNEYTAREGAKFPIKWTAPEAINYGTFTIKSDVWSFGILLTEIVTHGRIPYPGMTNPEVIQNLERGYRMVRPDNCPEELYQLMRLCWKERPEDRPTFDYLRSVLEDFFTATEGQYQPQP
Kindly return t if reported inhibition is no lower than 7%; return f if it is lower.

O=C1Nc2ccc(C(=O)c3ccco3)cc2C1=Cc1cc(Cl)c(O)c(Cl)c1 = t

I'd appreciate it if you could say whether "O=C1NC(=O)C(c2cccc(Cl)c2)=C1Nc1ccc(O)c(Cl)c1" has inhibition at least equal to 7%.
f

I'd appreciate it if you could say whether "Nc1nc(-c2ccc3c(c2)C(=Cc2cc(Br)c(O)c(Br)c2)C(=O)N3)cs1" has inhibition at least equal to 7%.
f

I'd appreciate it if you could say whether "CCCN1CCC(Oc2cc(Nc3nc(Nc4cccc(F)c4C(N)=O)c4cc[nH]c4n3)c(OC)cc2Cl)CC1" has inhibition at least equal to 7%.
f

* * *

target: Serine/threonine-protein kinase Nek6 (Homo sapiens) (UniProt Q9HC98); conditions: at 1 µM;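 note: values are mean inhibition of NEK6 from the GSK PKIS screen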
Sequence (Q9HC98 whole entry): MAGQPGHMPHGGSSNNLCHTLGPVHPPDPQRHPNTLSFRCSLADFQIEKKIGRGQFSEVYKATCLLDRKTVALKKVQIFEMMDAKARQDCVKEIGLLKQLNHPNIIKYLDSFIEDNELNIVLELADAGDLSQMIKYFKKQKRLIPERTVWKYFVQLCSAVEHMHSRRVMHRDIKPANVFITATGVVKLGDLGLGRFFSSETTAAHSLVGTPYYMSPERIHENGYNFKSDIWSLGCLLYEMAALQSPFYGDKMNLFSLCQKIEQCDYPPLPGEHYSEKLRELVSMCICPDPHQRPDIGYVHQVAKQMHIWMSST
Provide the reported inhibition of each item.
Give bare numbers, in %.

Solved cases below.
COc1cc(C=NNc2ncnc3c2cnn3-c2ccccc2)ccc1O = -0.37
CS(=O)(=O)CCNCc1ccc(-c2ccc3ncnc(Nc4ccc(OCc5cccc(F)c5)c(C(F)(F)F)c4)c3c2)o1 = 3.62
CC1=C(C(=O)Nc2ccc3[nH]ncc3c2)C(c2ccc(F)cc2)NC(=O)N1 (stereo not given) = 0.71
CC1=C(C(=O)Nc2ccc3[nH]ncc3c2)C(c2ccc3ccccc3c2)CC(=O)N1 (stereo not given) = 2.48
CNC(=O)c1cncc(/C=C/c2c(Cl)cccc2Cl)c1 = 4.76
COc1ccccc1Nc1ncc(-c2ccccc2)o1 = 1.67

Batch request: inhibition per item, same order as input.
1. NS(=O)(=O)c1ccc(N/N=C2\C(=O)Nc3ccc(C(=O)NCCc4c[nH]cn4)cc32)cc1
2. NC(=O)c1ccc(-c2nc(-c3ccccn3)c(-c3ccc4c(c3)OCO4)[nH]2)cc1
3. COc1ccc(-c2ccncc2)cc1C(N)=O
4. NC(=O)c1cccc(Nc2nccc(Nc3cccc4[nH]ncc34)n2)c1

[1.65, 4.68, 1.43, -2.96]

* * *

Provide the reported inhibition of each item.
tested on: Serine/threonine-protein kinase B-raf (Homo sapiens), P15056 [V600E]; details: at 0.1 µM;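 note: mean inhibition of the BRAF V599E mutant, from GSK PKIS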
Sequence (P15056 whole entry V600E): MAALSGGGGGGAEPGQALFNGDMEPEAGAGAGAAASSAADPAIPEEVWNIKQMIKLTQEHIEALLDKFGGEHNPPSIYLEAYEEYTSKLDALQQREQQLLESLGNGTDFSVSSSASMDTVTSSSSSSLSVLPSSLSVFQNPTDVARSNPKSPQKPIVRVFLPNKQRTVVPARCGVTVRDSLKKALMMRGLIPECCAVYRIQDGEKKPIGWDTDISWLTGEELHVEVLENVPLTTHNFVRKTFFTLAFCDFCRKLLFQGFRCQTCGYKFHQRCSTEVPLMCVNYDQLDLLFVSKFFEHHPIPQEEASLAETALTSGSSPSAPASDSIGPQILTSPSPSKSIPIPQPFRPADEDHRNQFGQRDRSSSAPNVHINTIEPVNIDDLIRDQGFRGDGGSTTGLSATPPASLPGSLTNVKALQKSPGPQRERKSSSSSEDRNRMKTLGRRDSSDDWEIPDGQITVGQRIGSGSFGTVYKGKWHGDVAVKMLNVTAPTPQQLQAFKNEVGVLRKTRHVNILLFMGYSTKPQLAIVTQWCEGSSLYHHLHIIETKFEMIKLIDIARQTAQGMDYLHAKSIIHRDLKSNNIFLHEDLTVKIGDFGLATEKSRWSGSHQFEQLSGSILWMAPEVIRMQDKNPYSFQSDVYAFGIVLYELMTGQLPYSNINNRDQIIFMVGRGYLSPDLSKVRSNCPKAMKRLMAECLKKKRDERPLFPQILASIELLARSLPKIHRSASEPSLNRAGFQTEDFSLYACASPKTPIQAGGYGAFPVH
Description: GSK_PKIS: BRAF (V599E mutant) mean inhibition at 0.1 uM [Nanosyn]
Numbers only, in %.

Solved cases below.
COc1ccc(COc2ccc(Cc3cnc(N)nc3N)cc2OC)cc1 = -1.07
COc1cc(C=NNc2ncnc3c2cnn3-c2ccccc2)ccc1O = 2.03
COc1cc2ncn(-c3cc(O[C@H](C)c4ccccc4Cl)c(C(N)=O)s3)c2cc1OC = 4.51
Cc1ccc(NC(=O)c2ccnc(N3CCCC3)c2)cc1-c1ccc(C(=O)NCC2CC2)cc1 = 7.57
Nc1ncnc2occ(-c3ccc(NC(=O)Nc4cc(C(F)(F)F)cc(C(F)(F)F)c4)cc3)c12 = 2.27
Nc1nc(-c2ccc3c(c2)C(=Cc2cc(Br)c(O)c(Br)c2)C(=O)N3)cs1 = 3.07
Nc1nc(-c2ccccn2)c(-c2ccc3ncccc3n2)s1 = 3.63
Cc1ccc(C(=O)NC2CCCCC2)cc1-c1ccc(C(=O)NCC2CC2)cc1 = 3.15
CCn1c(-c2nonc2N)nc2cncc(C(=O)N3CC[C@H](N)C3)c21 = 7.1
CCc1cccc(NC(=O)Nc2ccc(Oc3ccc4nc(NC(=O)OC)[nH]c4c3)cc2)c1 = 9.23

Batch request: inhibition per item, same order as input.
1. CC(=O)Nc1cccc(C#Cc2cncnc2Nc2ccc(OCc3cccc(F)c3)c(Cl)c2)n1
2. O=C1NC(=O)C(c2cccc(Cl)c2)=C1Nc1ccc(O)c(Cl)c1
3. Nc1ncnc2occ(-c3ccc(NC(=O)Nc4cccc(C(F)(F)F)c4)cc3)c12
4. CCN1CCC(CC(=O)Nc2n[nH]c3nc(-c4cccs4)c(Br)cc23)CC1
5. CS(=O)(=O)CCNCc1nc(-c2ccc3ncnc(Nc4ccc(F)c(Cl)c4)c3c2)cs1

1. -2.42
2. 0.91
3. 5.78
4. -3.29
5. 1.41

Batch request: inhibition per item, same order as input.
1. COC(=O)Nc1nc2cc(Oc3cccc(NC(=O)Nc4cc(C(F)(F)F)ccc4F)c3)ccc2[nH]1
2. CCn1c(-c2nonc2N)nc2cncc(C(=O)N3CCNCC3)c21
3. CCCN1CCC=C(c2ccc(Nc3nc(Nc4ccccc4C(N)=O)c4cc[nH]c4n3)c(C)c2)C1

0.34
6.08
7.56

* * *

molecular target: Casein kinase I isoform gamma-1 (Homo sapiens); conditions: at 0.1 µM;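 note: reported as mean inhibition, part of GSK PKIS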
Observed Property: inhibition (%)
Give bare numbers, in %.

CNC(=O)c1cncc(/C=C/c2c(Cl)cccc2Cl)c1 = 4.49
Cn1cc(C=C2C(=O)Nc3cccnc32)c2ccccc21 = 2.59
CCN1CCC(CC(=O)Nc2n[nH]c3nc(-c4cccs4)c(Br)cc23)CC1 = -2.56
CS(=O)(=O)CCNCc1ccc(-c2ccc3ncnc(Nc4ccc(OCc5ccccc5)c(Cl)c4)c3c2)o1 = 1.35
c1cnn2ncc(-c3ccnc(Nc4ccc5c(c4)OCCO5)n3)c2c1 = 4.47

Batch request: inhibition per item, same order as input.
1. CCc1cccc(NC(=O)Nc2ccc(Oc3ccc4nc(NC(=O)OC)[nH]c4c3)cc2)c1
2. COc1cc2ncn(-c3cc(OCc4ccccc4C(F)(F)F)c(C(N)=O)s3)c2cc1OC

1.05
0.9

* * *

Biological target: cGMP-dependent protein kinase 1 (Homo sapiens) (UniProt Q13976);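 note: listed percent inhibition of PRKG1 is a mean value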
Sequence (whole entry): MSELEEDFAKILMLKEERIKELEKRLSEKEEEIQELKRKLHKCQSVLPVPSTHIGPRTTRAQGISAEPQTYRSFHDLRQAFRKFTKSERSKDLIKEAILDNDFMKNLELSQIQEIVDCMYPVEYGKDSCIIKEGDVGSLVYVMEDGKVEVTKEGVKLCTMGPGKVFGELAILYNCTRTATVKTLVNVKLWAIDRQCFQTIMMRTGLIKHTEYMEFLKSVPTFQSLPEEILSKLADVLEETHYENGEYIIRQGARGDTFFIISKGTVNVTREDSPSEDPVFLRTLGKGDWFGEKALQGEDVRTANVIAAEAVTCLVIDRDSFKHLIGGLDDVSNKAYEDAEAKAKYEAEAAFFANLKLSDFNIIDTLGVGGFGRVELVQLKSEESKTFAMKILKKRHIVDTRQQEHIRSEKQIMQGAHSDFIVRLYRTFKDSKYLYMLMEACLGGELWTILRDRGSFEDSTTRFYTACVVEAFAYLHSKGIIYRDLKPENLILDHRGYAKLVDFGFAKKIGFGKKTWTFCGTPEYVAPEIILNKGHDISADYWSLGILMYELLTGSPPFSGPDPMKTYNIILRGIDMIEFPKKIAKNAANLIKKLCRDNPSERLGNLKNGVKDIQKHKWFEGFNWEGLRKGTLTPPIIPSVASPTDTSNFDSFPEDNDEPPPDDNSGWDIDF
Details: at 1 µM
Recorded inhibition determines the label; the label ranges are lower range: < 2%; middle range: ≥ 2% and < 4%; upper range: ≥ 4%

Answered examples (4):
COC(=O)Nc1nc2cc(Oc3cccc(NC(=O)Nc4cc(C(F)(F)F)ccc4F)c3)ccc2[nH]1 = middle range
COc1cc(C=NNc2ncnc3c2cnn3-c2ccccc2)ccc1O = lower range
Nc1nc(-c2ccccn2)c(-c2ccc3ncccc3n2)s1 = middle range
Nc1ncnc2occ(-c3ccc(NC(=O)Nc4cccc(C(F)(F)F)c4)cc3)c12 = lower range

Band for the recorded inhibition of CC1=C(C(=O)Nc2ccc3[nH]ncc3c2)C(c2ccc3ccccc3c2)CC(=O)N1 (centres undefined) ?
upper range

Band for the recorded inhibition of "Fc1cccc(COc2ccc(Nc3ncnc4cc(-c5ccc[nH]5)sc34)cc2Cl)c1" ?
upper range

Band for the recorded inhibition of "[O-][S+]1CCN(Cc2ccc(-c3ccc4ncnc(Nc5ccc(OCc6ccccc6)c(F)c5)c4c3)o2)CC1" ?
middle range

Band for the recorded inhibition of "COC(=O)Nc1nc2cc(Oc3ccc(NC(=O)Nc4cccc(C(=O)O)c4)cc3)ccc2[nH]1" ?
middle range

Band for the recorded inhibition of "CC(=O)Nc1cccc(C#Cc2cncnc2Nc2ccc(OCc3cccc(F)c3)c(Cl)c2)n1" ?
middle range
